Entries and their Inhibitory rate (%) Tyk2 1 μM
- Tested target: Tyk2 (Homo sapiens, UniProt P29597)
- Construct: purchased Invitrogen
- Sequence (P29597 whole entry): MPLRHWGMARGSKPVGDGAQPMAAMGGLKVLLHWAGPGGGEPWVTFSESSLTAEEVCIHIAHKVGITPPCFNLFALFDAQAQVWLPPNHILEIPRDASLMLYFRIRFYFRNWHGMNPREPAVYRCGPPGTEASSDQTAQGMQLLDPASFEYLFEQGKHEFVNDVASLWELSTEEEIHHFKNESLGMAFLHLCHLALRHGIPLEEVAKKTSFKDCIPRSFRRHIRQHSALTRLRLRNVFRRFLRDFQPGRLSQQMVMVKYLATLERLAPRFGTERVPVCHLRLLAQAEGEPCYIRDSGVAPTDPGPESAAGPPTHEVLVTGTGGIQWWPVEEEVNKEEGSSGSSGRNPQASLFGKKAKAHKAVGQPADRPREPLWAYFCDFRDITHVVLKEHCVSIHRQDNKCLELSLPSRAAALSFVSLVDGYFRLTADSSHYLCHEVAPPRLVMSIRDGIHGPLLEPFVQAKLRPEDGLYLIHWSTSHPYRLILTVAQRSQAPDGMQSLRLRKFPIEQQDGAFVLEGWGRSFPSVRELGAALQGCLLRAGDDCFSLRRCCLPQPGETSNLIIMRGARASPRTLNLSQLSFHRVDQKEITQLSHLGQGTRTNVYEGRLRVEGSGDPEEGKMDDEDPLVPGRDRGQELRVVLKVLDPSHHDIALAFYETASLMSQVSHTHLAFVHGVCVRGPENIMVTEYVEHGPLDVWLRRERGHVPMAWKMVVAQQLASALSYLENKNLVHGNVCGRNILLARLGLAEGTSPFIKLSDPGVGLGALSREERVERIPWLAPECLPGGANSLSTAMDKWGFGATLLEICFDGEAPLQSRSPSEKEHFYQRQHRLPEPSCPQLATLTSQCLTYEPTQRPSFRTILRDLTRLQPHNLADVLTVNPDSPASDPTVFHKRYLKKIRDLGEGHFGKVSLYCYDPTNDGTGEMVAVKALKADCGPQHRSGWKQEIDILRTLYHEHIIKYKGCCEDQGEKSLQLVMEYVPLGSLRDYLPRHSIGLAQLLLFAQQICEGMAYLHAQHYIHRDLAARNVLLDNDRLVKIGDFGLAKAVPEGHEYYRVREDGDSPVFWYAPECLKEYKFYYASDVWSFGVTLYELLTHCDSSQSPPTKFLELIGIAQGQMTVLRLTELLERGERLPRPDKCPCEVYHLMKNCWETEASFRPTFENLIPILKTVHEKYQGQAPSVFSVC
- Experimental protocol: Tyk2 enzyme inhibition test (LANCE method)
- Assay type: biochemical
- Reported conditions: test compound 1 μM
The answer is to be given in %; state only the numeric part.

Worked examples, 3 molecules total:
NS(=O)(=O)c1ccc(-c2nn(C3CCOC3)c3cc[nH]c(=O)c23)cc1 (stereo not shown) [Example 84]: 58
NS(=O)(=O)c1ccc(-c2nn(C3CCC(O)CC3)c3cc[nH]c(=O)c23)cc1 (stereo not shown): 98
NS(=O)(=O)c1ccc(-c2nn(C3CCCOC3)c3cc[nH]c(=O)c23)cc1 (stereo not shown) [Example 88]: 91

Requested read-out: Inhibitory rate (%) Tyk2 1 μM. Entry: NS(=O)(=O)c1ccc(-c2nn(C3CCOC3)c3cc[nH]c(=O)c23)cc1 (stereo not shown) [Example 82]
78

Could you do the same for CC1(O)CCC(n2nc(-c3ccc(S(N)(=O)=O)cc3)c3c(=O)[nH]ccc32)CC1 (stereo not shown) , please?
98

Another: CCC1(O)CCC(n2nc(-c3ccc(S(N)(=O)=O)cc3)c3c(=O)[nH]ccc32)CC1 (stereo not shown)
97

One more molecule: NS(=O)(=O)c1ccc(-c2nn(C3CCCOC3)c3cc[nH]c(=O)c23)cc1 (stereo not shown) [Example 28]
97

====

- Tested target: Tyk2 (Homo sapiens)
- Construct: purchased Invitrogen
- Experimental protocol: Tyk2 enzyme inhibition test (LANCE method)
- Type: biochemical
- Reported conditions: test compound 1 μM; read-out: Inhibitory rate (%) Tyk2 1 μM
Measured metric: inhibition at 1 µM (%)
Hi! Could you send only the number? It should be in %, unit omitted.

// below: answered compounds
COC(=O)c1ccc(-c2nn(-c3c(F)cccc3F)c3cc[nH]c(=O)c23)cc1 [Example 260]: 94
NS(=O)(=O)c1ccc(Nc2nn(C3CCCC3)c3cc[nH]c(=O)c23)cc1 [Example 297]: 99
COCCNC(=O)c1ccc(-c2nn(-c3c(F)cccc3F)c3c(Cl)c[nH]c(=O)c23)cc1 [Example 231]: 99
N#Cc1c[nH]c(=O)c2c(-c3cccs3)cn(C3CCCC3)c12 [Example 134]: 97
CCNC(=O)c1cc(-c2cn(C3CCCC3)c3c(C#N)c[nH]c(=O)c23)cs1 [Example 122]: 100

Fill in: inhibition at 1 µM of COC(=O)c1cc(-n2nc(-c3ccccc3C)c3c(C#N)c[nH]c(=O)c32)cs1 [Example 68] is ___
67

Repeat with O=C(CO)N1CCN(c2ccc(-c3nn(-c4c(F)cccc4F)c4cc[nH]c(=O)c34)cc2)CC1 [Example 312]
99

Now give it for COC(=O)c1c[nH]c(=O)c2c(-c3csc(C#N)c3)cn(C3CCCC3)c12 [Example 73] too.
83

Same read-out for N#Cc1c[nH]c(=O)c2c(-c3ccsc3)cn(C3CCCC3)c12 [Example 106] ?
98

Param item: CCOC(=O)c1ccc(-c2nn(-c3c(F)cccc3F)c3cc[nH]c(=O)c23)cn1 [Example 259]
81

Repeat with COC(=O)c1c[nH]c(=O)c2c(-c3csc(C(N)=O)c3)cn(C3CCCC3)c12 [Example 34]
99

Another compound: N#CCOc1ccc(-c2nn(-c3c(F)cccc3F)c3c(Cl)c[nH]c(=O)c23)cc1 [Example 167]
97

Field entry: C[C@H]1CCC[C@H]1n1cc(-c2csc(C(N)=O)c2)c2c(=O)[nH]ccc21 (relative stereo) [Example 85]
100

Also, N#CCc1ccc(-c2cn(C3CCCC3)c3c(C#N)c[nH]c(=O)c23)cc1 [Example 96] please.
99

What do you get for CNC(=O)c1ccc(-c2nn(-c3c(F)cccc3F)c3cc[nH]c(=O)c23)cc1 [Example 180] ?
101

Subsequent entry: CC(=O)Nc1cccc(-c2cn(C3CCCC3)c3c(C#N)c[nH]c(=O)c23)c1 [Example 130]
96

meta.source: patent US9371320B2
